Target: T1, rhesus monkey transferrin receptor (rhTfR) fused to EGFP, on CHO cells (rhesus monkey)
T1 construct: whole, on cells; also called rhesus monkey TfR
Experiment: apparent Kd, flow cytometry, CHO cells
MEASUREMENT_KIND: pKd
Hey, just a heads up that pKd is the negative log base 10 of the concentration in molar.

B8^V9 (VHH) VHH: EVQLVESGGGVVQPGGSLRLSCAASGEIFSINFMRWYRQAPGKQREWVAGFTRDGSKNYPDSAKGRFTISRDNAKNTVYLQIDSLKPEDTAVYYCYMLDTWGQGTQVTVSS; 8.62
B8^V2 (VHH) VHH: EVQLVESGGGVVQPGGSLRLSCAASGEIFSINFMRWYGQAPGKQREWVAGFTRDGSTNYPDSAKGRFTISRDNAKNTVYLQIDSLKPEDTAVYYCYMLDTWGQGTQVTVSS; 10.00

Give the measured pKd of B8^V22 (VHH) VHH: EVQLVESGGGVVQPGGSLRLSCAASGEIFSINQMRWYRQAPGKQREWVAGFTRDGSTNYPDSAKGRFTISRDNAKNTVYLQIDSLKPEDTAVYYCYMLDTWGQGTQVTVSS .
6.01
